- test_details: gradient 5% acetonitrile 3 min, to 50% in 2 min, to 85% in 15 min, held 3 min, 100 µL/min
- recorded_conditions: column: Zorbax Extend-C18 2.1 x 50 mm; eluents: water / acetonitrile, 0.1% formic acid
property: RP-LC retention time (s)

INSERT INTO measurements (molecule, property, observed_value) VALUES
  ('Cc1nn2c(CNC(=O)c3ccccn3)c(-c3ccccc3)nc2s1', 'RP-LC retention time', 796),
  ('O=C(c1ccc2nc[nH]c2c1)N1CCN(c2cc(-c3cccs3)[nH]n2)CC1', 'RP-LC retention time', 594),
  ('c1ccc(-c2nc(-c3ccncc3)no2)c(OC2CCN(Cc3ccsc3)C2)c1 (stereo not given)', 'RP-LC retention time', 679);

(A) CCC(C)NC(=O)c1nccnc1NC(=O)c1ccccc1 (stereo not given)
(B) CNC(=O)NC(=O)COc1cc(=O)n2cccc(C)c2n1
Request: Decide: A or B , by lowest recorded RP-LC retention time. The response must carry the label of the picked entry.
Result: B

###

- test_details: gradient 5% acetonitrile 3 min, to 50% in 2 min, to 85% in 15 min, held 3 min, 100 µL/min
- recorded_conditions: column: Zorbax Extend-C18 2.1 x 50 mm; eluents: water / acetonitrile, 0.1% formic acid
property: RP-LC retention time (s)

INSERT INTO measurements (compound, uom, observed_value) VALUES
  ('CC(=O)N1CCc2c([nH]c3ccccc23)C12C(=O)N(C)c1ccc(Br)cc12 (stereo not given)', 's', 857),
  ('Cc1ccc(C)c(-c2csc(Nc3ccc(S(=O)(=O)Nc4cc(C)on4)cc3)n2)c1', 's', 1070),
  ('CC(=O)Nc1ccc(NC(=O)c2cc3sccc3n2Cc2ccc(F)cc2)cc1', 's', 911),
  ('CCCC(NC(=O)c1ccc(OCC)c(OCC)c1)C(=O)Nc1nc2ccccc2[nH]1 (stereo not given)', 's', 733),
  ('Cc1cc(NC(=O)CN2CCc3[nH]c4c(C)ccc(C)c4c(=O)c3C2)ccc1F', 's', 666);

(a) CC(C)Oc1ccc(-c2noc(CN3N=NC4C(=O)N(c5cccc(F)c5)C(=O)C43)n2)cc1 (stereo not given)
(b) CCc1nc2c(NC(=O)Cc3cccnc3)cccn2n1
Request: Decide: a or b , by lowest recorded RP-LC retention time. The response must carry the label of the picked entry.
Result: b

(1) CCNS(=O)(=O)c1cccnc1Nc1ccccc1F
(2) COc1ccc(C2(C(=O)N3CC[C@@H]4CN(Cc5ccccc5)[C@@H]4C3)CC2)cc1
Request: Which value of RP-LC retention time is numerically greater: that of 1 or that of 2 ? The response must carry the label of the picked entry.
Result: 1

###

- test_details: gradient 5% acetonitrile 3 min, to 50% in 2 min, to 85% in 15 min, held 3 min, 100 µL/min
- recorded_conditions: column: Zorbax Extend-C18 2.1 x 50 mm; eluents: water / acetonitrile, 0.1% formic acid
property: RP-LC retention time (s)

Field: example entries. Status: answers known.
INSERT INTO measurements (smiles_record, property, observed_value) VALUES
  ('C[C@H]1CN(C(=O)Nc2ccc(Cl)cc2)C[C@@H]1c1nc(-c2ccncc2)no1', 'RP-LC retention time', 821),
  ('O=C(O)c1cn(Cc2ccccc2F)c(=O)c2ccccc12', 'RP-LC retention time', 801),
  ('CCc1nc(-c2csc(S(=O)(=O)N3CCC(C(=O)NCc4cccs4)CC3)c2)no1', 'RP-LC retention time', 860);

(I) Cc1ccc(NC(=O)C2CCN(S(=O)(=O)c3c(C)[nH]c(C)c3C(=O)N3CCCC3)CC2)c(C)c1
(II) Cc1ccc(N(C)S(=O)(=O)c2c(C)sc(C)c2-c2cc(C(F)(F)F)on2)cc1C
Request: Which value of RP-LC retention time is numerically greater: that of I or that of II ? The response must carry the label of the picked entry.
Result: II

###

- test_details: gradient 5% acetonitrile 3 min, to 50% in 2 min, to 85% in 15 min, held 3 min, 100 µL/min
- recorded_conditions: column: Zorbax Extend-C18 2.1 x 50 mm; eluents: water / acetonitrile, 0.1% formic acid
property: RP-LC retention time (s)

Field: example entries. Status: answers known.
INSERT INTO results (molecule, observed_value) VALUES
  ('O=C1C(N2CCN(S(=O)(=O)c3ccccc3)CC2)CCN1CCc1ccccc1 (stereo not given)', 642),
  ('O=C(c1ccoc1)N1CC(F)(F)C[C@H]1c1nnc(-c2ccncc2)o1', 668),
  ('NC(=O)c1cc2c(s1)N(CC1CC1)CCCC2', 827);

(P) CCc1ccc2[nH]c3c(c(=O)c2c1)CN(CC(=O)NCc1ccc2c(c1)OCO2)CC3
(Q) O=C(CN1C(=O)C(C(=O)N2CCCCC2)Sc2ccccc21)NC1CCCCCC1 (stereo not given)
Request: Which value of RP-LC retention time is numerically greater: that of P or that of Q ? The response must carry the label of the picked entry.
Result: Q
(Q: 1090 s, P: 624 s)

###

- test_details: gradient 5% acetonitrile 3 min, to 50% in 2 min, to 85% in 15 min, held 3 min, 100 µL/min
- recorded_conditions: column: Zorbax Extend-C18 2.1 x 50 mm; eluents: water / acetonitrile, 0.1% formic acid
property: RP-LC retention time (s)

Field: example entries. Status: answers known.
INSERT INTO measurements (molecule, uom, observed_value) VALUES
  ('COc1ccc(NC(=O)CN2CCc3[nH]c4c(C)ccc(F)c4c(=O)c3C2)cc1OC', 's', 1050),
  ('O=C1Nc2ccccc2C12OCC1(CO2)COC2(OC1)C(=O)Nc1ccccc12 (centres undefined)', 's', 784),
  ('Cc1cc(NC(=O)C2CCCN(c3ccc(=O)n(-c4ccc(F)cc4)n3)C2)ccc1Br (centres undefined)', 's', 899),
  ('O=C(CSc1nc2ccccc2nc1SCC(=O)N1CCCC1)N1CCCC1', 's', 743),
  ('COc1ccc(-c2noc(-c3ccc(NCCCN4CCCC4)nn3)n2)cc1', 's', 642),
  ('CCN1CCN(c2nnc(-c3nc(C4CC4)no3)c3ccccc23)CC1', 's', 622),
  ('CCOc1ccc(-c2noc(Cn3nc(-c4ccc(CC)cc4)ccc3=O)n2)cc1', 's', 597),
  ('CCn1c(C)c(CCC(=O)NC(C)C)c(=O)n2nc(-c3ccccc3)nc12', 's', 706),
  ('COc1ccc(NC(=O)C2CCN(S(=O)(=O)c3cn(C)cn3)CC2)c(OC)c1', 's', 666),
  ('O=C(c1cccn1Cc1noc(-c2ccc(Cl)cc2)n1)N1CCCC1', 's', 1020);

(P) COC(=O)C1=CN(c2ccccc2C)c2ccc(F)cc2S1(=O)=O
(Q) CCC(=O)N1CCN(c2nc(C)cc(N3CCOCC3)n2)CC1
Request: Which value of RP-LC retention time is numerically greater: that of P or that of Q ? The response must carry the label of the picked entry.
Result: P

(1) Cc1ccccc1Cn1nc2ccc(S(=O)(=O)N3CCCCCC3)cn2c1=O
(2) Cc1cc(=O)n(CC(=O)Nc2ccc(F)cc2)c(N2CCCC2)n1
Request: Decide: 1 or 2 , by lowest recorded RP-LC retention time. The response must carry the label of the picked entry.
Result: 2

###

- test_details: gradient 5% acetonitrile 3 min, to 50% in 2 min, to 85% in 15 min, held 3 min, 100 µL/min
- recorded_conditions: column: Zorbax Extend-C18 2.1 x 50 mm; eluents: water / acetonitrile, 0.1% formic acid
property: RP-LC retention time (s)

INSERT INTO measurements (compound, property, uom, observed_value) VALUES
  ('COC(=O)C(C)n1nc2nc(Nc3cc(C)cc(C)c3)cc(C)n2c1=O (stereo not given)', 'RP-LC retention time', 's', 1160);

(P) Cc1oc(C2CCN(C(=O)Nc3ccc4c(c3)OCCO4)CC2)nc1C(=O)N(C)C
(Q) COc1ccc(C2Cn3nnc(-c4nc(-c5cccc(C)c5)no4)c3CO2)cc1 (stereo not given)
Request: Decide: P or Q , by lowest recorded RP-LC retention time. The response must carry the label of the picked entry.
Result: P

###

- test_details: gradient 5% acetonitrile 3 min, to 50% in 2 min, to 85% in 15 min, held 3 min, 100 µL/min
- recorded_conditions: column: Zorbax Extend-C18 2.1 x 50 mm; eluents: water / acetonitrile, 0.1% formic acid
property: RP-LC retention time (s)

INSERT INTO assay_data (compound, uom, observed_value) VALUES
  ('Cc1ccc(NS(=O)(=O)c2ccc3c(c2)CCCC(=O)N3)cc1C', 's', 756),
  ('CCCNC(=O)N1CCN(c2nc3ccccc3n(Cc3ccc(C)cc3)c2=O)CC1', 's', 978);

(P) COc1ccc(Oc2ncc(-c3ccc(C(=O)NC4CC4)cc3)cn2)cc1
(Q) Cc1cccc(OCc2nc(-c3cccc(-c4csc(C5CC5)n4)c3)no2)c1
Request: Which value of RP-LC retention time is numerically greater: that of P or that of Q ? The response must carry the label of the picked entry.
Result: Q
